// data source = ChEMBL document CHEMBL1128701

- study-target: Progesterone receptor (Homo sapiens, UniProt P06401)
- Sequence (P06401 whole entry): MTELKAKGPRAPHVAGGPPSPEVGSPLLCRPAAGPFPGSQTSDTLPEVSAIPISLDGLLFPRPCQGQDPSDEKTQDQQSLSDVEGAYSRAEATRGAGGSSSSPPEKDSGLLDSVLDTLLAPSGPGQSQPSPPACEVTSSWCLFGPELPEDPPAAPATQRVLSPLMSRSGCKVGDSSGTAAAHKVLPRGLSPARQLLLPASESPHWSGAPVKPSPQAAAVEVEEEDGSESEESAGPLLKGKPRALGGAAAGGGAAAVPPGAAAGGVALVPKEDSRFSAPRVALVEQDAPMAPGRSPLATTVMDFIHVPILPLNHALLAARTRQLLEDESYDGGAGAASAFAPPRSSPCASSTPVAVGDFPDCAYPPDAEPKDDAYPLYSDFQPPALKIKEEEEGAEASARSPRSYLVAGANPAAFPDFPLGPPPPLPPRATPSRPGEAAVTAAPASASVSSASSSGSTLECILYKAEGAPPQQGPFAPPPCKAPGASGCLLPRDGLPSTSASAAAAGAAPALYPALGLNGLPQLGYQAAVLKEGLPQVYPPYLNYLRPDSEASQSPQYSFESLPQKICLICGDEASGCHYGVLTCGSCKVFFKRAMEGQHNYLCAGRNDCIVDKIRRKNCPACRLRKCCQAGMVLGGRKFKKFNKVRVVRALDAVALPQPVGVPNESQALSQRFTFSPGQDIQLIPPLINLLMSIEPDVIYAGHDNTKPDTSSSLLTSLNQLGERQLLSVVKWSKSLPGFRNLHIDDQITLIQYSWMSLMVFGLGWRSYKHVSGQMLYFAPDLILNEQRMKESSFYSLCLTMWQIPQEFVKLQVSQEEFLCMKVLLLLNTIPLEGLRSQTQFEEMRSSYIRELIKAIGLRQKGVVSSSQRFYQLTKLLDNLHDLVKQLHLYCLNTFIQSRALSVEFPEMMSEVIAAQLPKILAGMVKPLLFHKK
- test-method-notes: Binding affinity against Progesterone receptor in human TE85 osteosarcoma cells was determined using (Z)-[125I]-17-alpha-(2-iodovinyl)-19-nor-testosterone as radioligand
parameter: IC50 (nM)
// units = nM; emit number, no label

Exercise: Hello, please tell me recorded IC50 for this one: CC1CC(c2ccccc2)=NN(C(=O)c2ccc(Cl)c(Cl)c2)C1 (stereo not drawn)
Key: 98

Exercise: Quick one: give measured IC50 for "O=C(c1ccc(F)c(F)c1)N1CCCC(c2ccccc2)=N1"
Key: 515

Exercise: Return reported IC50. Input compound: "O=C(c1ccc(Cl)c(Cl)c1)N1CCCC(c2ccc(Cl)cc2)=N1"
Key: 84

Exercise: Query IC50 for "O=C(c1ccc(F)c(Br)c1)N1CCCC(c2ccccc2)=N1"
Key: 38.2

Exercise: Give the measured IC50 for "O=C(c1ccc(Cl)c(C(F)(F)F)c1)N1CCCC(c2ccccc2)=N1"
Key: 270

Exercise: Tell us which IC50 value is on record for CC1CCN(C(=O)c2ccc(Cl)c(Cl)c2)N=C1c1ccccc1 (stereo not drawn)
Key: 24

Exercise: Give reported IC50 value for "S=C(c1ccc(Cl)c(Cl)c1)N1CCCC(c2ccccc2)=N1"
Key: 17.5

Exercise: Could you please provide reported IC50 for "O=C(c1ccc(Cl)cc1)N1CCCC(c2ccccc2)=N1" ? Thanks!
Key: 521
